# target.under.test: Fes (UniProt P07332)
# Sequence (P07332 whole entry, looked up): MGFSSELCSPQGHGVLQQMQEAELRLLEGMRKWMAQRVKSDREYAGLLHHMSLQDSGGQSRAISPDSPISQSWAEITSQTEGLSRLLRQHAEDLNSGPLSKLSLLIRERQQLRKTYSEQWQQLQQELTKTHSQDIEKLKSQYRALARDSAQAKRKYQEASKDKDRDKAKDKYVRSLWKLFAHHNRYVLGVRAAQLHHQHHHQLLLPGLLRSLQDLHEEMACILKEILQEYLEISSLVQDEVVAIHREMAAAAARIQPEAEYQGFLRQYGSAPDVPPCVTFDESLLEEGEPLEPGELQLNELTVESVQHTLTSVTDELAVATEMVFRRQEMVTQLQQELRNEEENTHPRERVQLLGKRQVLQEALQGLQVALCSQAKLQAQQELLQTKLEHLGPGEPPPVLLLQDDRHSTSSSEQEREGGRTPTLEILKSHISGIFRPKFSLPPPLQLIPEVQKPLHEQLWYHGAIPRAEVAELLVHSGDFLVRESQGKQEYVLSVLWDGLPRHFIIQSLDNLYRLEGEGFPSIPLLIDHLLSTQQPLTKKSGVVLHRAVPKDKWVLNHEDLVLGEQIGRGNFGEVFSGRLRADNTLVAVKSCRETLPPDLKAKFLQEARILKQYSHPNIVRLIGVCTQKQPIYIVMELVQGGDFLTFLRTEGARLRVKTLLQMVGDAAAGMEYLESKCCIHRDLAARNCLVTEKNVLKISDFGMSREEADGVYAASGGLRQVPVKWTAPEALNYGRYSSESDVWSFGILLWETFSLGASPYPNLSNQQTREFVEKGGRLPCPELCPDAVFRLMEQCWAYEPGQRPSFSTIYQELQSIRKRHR
# assay.details: phosphorylation enrichment, bacterial display (enrichment ratio); higher = better substrate or ligand; peptides without Tyr show the background;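 note: 11-residue human phosphosite peptides and single-mutation variants displayed on the E. coli surface, counted by deep sequencing, each peptide's frequency after selection divided by its frequency in the unselected input library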;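 note: frequency after pTyr selection over input frequency; kinase dosed for 20-30% of maximal phosphorylation in three min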
The reader will find reported phosphorylation enrichment values listed item by item below.
The answer should be a number; do not append a unit.

For orientation, consider the following solved cases.
ANNEYYFQVCA	1.5
GADDSYFTVRS [ZAP70_Y492_A495V_YF]	1

[Q] Bench note: what phosphorylation enrichment did HDRNTYEKFLE [TF_Y666_G671E_YF] show?
[A] 1.03

[Q] Bench note: what phosphorylation enrichment did GEHSIYSTVNN [CD55_Y266_C267S] show?
[A] 1.5

Source listed as the supplement of paper PMC10065799.
